Values compiled from ChEMBL document CHEMBL1125315.

# target.desc: Human immunodeficiency virus type 1 reverse transcriptase (Human immunodeficiency virus 1)
Lab note: cut-off is 700 nM. Strictly less in IC50 is TRUE. Exactly 700 nM or more is FALSE.

// known answers, use as guide
[
  {
    "compound": "CCc1cc(NCc2nc3c(F)ccc(Cl)c3o2)c(=O)[nH]c1C",
    "assigned.label": "TRUE"
  },
  {
    "compound": "CCc1cc(NC(C)c2ccc3ccccc3c2)c(O)nc1C (configuration not stated)",
    "assigned.label": "FALSE"
  },
  {
    "compound": "CCc1cc(NCc2nc3c(F)cccc3o2)c(=O)[nH]c1C",
    "assigned.label": "TRUE"
  },
  {
    "compound": "CCc1cc(N(CC)Cc2nc3c(Cl)ccc(Cl)c3o2)c(O)nc1C",
    "assigned.label": "TRUE"
  },
  {
    "compound": "CCc1cc(NCc2ncc(-c3ccccc3)o2)c(=O)[nH]c1C",
    "assigned.label": "FALSE"
  }
]

Exercise: Does this compound meet the criterion IC50 < 700 nM? "CCc1cc(NCc2cc3ccncc3o2)c(O)nc1C"
Key: FALSE

Exercise: Now try "CCc1cc(NCc2nc3c(ccc4ccccc43)o2)c(O)nc1C" .
Key: FALSE

Exercise: Now try "CCc1cc(NCc2cc3c(Cl)ccc(Cl)c3o2)c(O)nc1C" .
Key: TRUE

Exercise: Now try "CCc1cc(NCc2ccc3ccccc3c2)c(=O)n(C)c1C" .
Key: FALSE

* * *

Human immunodeficiency virus type 1 reverse transcriptase (Human immunodeficiency virus 1) data, read-out IC50
Give your result in nM as a bare value.

These solved cases illustrate the format of a correct answer.
[
  {
    "line.notation": "CCc1cc(NCc2cc3ccccc3o2)c(O)nc1C",
    "target.desc": "Human immunodeficiency virus type 1 reverse transcriptase (Human immunodeficiency virus 1)",
    "IC50 / nM": 330
  },
  {
    "line.notation": "CCc1cc(NCc2nc3c(o2)CCCC3)c(=O)[nH]c1C",
    "target.desc": "Human immunodeficiency virus type 1 reverse transcriptase (Human immunodeficiency virus 1)",
    "IC50 / nM": 280
  }
]

Exercise: Fill in the blank: the reported IC50 of "CCc1cc(NCc2ccoc2)c(O)nc1C" is ____.
Key: 145000

Exercise: Now try "CCc1cc(NCc2nc3cc(C)ccc3o2)c(O)nc1C" .
Key: 1250

Exercise: Now try "CCc1cc(NCc2nc3cccc(CC)c3o2)c(O)nc1C" .
Key: 260

Exercise: Now try "CCc1cc(N(C)Cc2cc3c(Cl)ccc(Cl)c3o2)c(=O)[nH]c1C" .
Key: 1050

Exercise: Now try "CCc1cc(NCc2ccc3ccccc3c2)c(=S)[nH]c1C" .
Key: 300

* * *

UniProt:Q72547 data, read-out pIC50
pIC50 is defined as minus the log10 of a concentration measured in mol/L.

[
  {
    "line.notation": "CCc1cc(NCc2nc3c(F)ccc(F)c3o2)c(=O)[nH]c1C",
    "parameter.measured": "pIC50",
    "value.measured": 7.15
  },
  {
    "line.notation": "CCc1c(C)[nH]c(=O)c(NCc2nc3ccccc3o2)c1C",
    "parameter.measured": "pIC50",
    "value.measured": 6.22
  }
]

Okay, now this molecule:
Exercise: Fill in the blank: the reported pIC50 of "CCc1cc(NCc2nc3cc4ccccc4cc3o2)c(=O)[nH]c1C" is ____.
Key: 5.00
